- procedure.details: BET inhibitor-based combinations targeting novel dependencies in MECOM-rearranged (r) AML: MV-4-11 cell line (AID 2202233); also: nearly all actives have a fitted effect of over 45% in size
- condition.details: MV-4-11 AML viability, CellTiter-Glo luminescence, 48 h; series mostly up to 46 µM
Results filed as inconclusive are left out. Calls of active or inactive are those of the source. Calls follow the shape of the dose curve; as a rule, active = well fitted inhibition curve with a large enough effect; inconclusive = small, poorly fitted or top-dose-only effect; inactive = no such curve, though single readings can be large or run the other way.
Outcomes: yes (1) = active, no (0) = inactive

{"columns": ["molecule", "cat"],
 "data": [
  ["COc1cccc(Nc2ncnn3ccc(CN4CC[C@@H](N)[C@H](O)C4)c23)c1", "yes (1)"],
  ["CCC(=O)NC[C@H](Cc1ccc(OCCc2nc(-c3ccccc3)oc2C)cc1)N/C(C)=C\\C(=O)c1ccc(C(F)(F)F)cc1", "yes (1)"],
  ["CCN[C@H]1C[C@H](C)S(=O)(=O)c2sc(S(N)(=O)=O)cc21", "no (0)"],
  ["CC(C)(C(=O)NCC(F)(F)C(F)(F)F)C(=O)N[C@@H]1C(=O)Nc2ccccc2-c2ccccc21", "no (0)"],
  ["Nc1n[n+]([O-])c2ccccc2[n+]1[O-]", "yes (1)"],
  ["C[C@@H](Oc1cc(C(=O)Nc2ccc(C(=O)N3CCN(C)CC3)cc2)nnc1N)c1c(Cl)ccc(F)c1Cl", "yes (1)"],
  ["C[C@H](NC(=O)c1c(N)nn2cccnc12)c1cc2cccc(C#Cc3cnn(C)c3)c2c(=O)n1-c1ccccc1", "yes (1)"],
  ["COc1ccc(S(=O)(=O)N(C(C)=O)c2ccccc2/C=C/c2cc[n+]([O-])cc2)cc1", "yes (1)"],
  ["COc1cccc(-c2c(C)n(Cc3c(F)cccc3C(F)(F)F)c(=O)n(C[C@H](NCCCC(=O)O)c3ccccc3)c2=O)c1F", "no (0)"],
  ["C=C1[C@H](OC(=O)/C=C(\\C)CC)C[C@@H](C(C)C)[C@@H]2[C@H]([C@@H](C)OC(C)=O)C(=O)C[C@@H]12", "yes (1)"],
  ["OCCNC1CCCc2c1[nH]c1ccc(-c3ccccc3)cc21 (centres undefined)", "yes (1)"],
  ["C/C(=N\\NC(=S)N1CCC1)c1ccccn1", "yes (1)"],
  ["COc1cc(-c2cc(-c3ccc(N4CCNCC4)cc3)cnc2C)cc(OC)c1OC", "yes (1)"],
  ["Nc1nc(F)nc2c1ncn2C1OC(COP(=O)(O)O)C(O)C1O (centres undefined)", "yes (1)"],
  ["NC1CCCN(c2c(/C=C3\\SC(=O)NC3=O)cccc2-c2ccccc2)C1 (centres undefined)", "yes (1)"],
  ["COc1cc(C(=O)O)ccc1NC(=O)[C@@H]1N[C@@H](CC(C)(C)C)[C@](C#N)(c2ccc(Cl)cc2F)[C@H]1c1cccc(Cl)c1F", "yes (1)"],
  ["C[C@@H]1COCCN1c1cc(-c2ccnn2C)c2ccnc(-c3ccn[nH]3)c2n1", "yes (1)"],
  ["COc1cc(F)ccc1-c1ncnc(Nc2cccc(CS(C)(=N)=O)c2)n1 (centres undefined)", "yes (1)"],
  ["CN1C(N)=N[C@](C)(c2cc(NC(=O)c3ccc(F)cn3)ccc2F)CS1(=O)=O", "no (0)"]
]}

---

- procedure.details: qHTS for Inhibitors of the Aldehyde Dehydrogenase Family (ALDH1A2, ALDH1A3, ALDH2, ALDH3A1) (AID 2061307); also: nearly all actives have a fitted effect of over 50% in size
- condition.details: ALDH inhibition qHTS; series mostly up to 50.3 µM
Records with an inconclusive call do not appear. The source made the active and inactive calls. Calls come from the whole dose curve; as a rule, active = well fitted inhibition curve with a large enough effect; inconclusive = small, poorly fitted or top-dose-only effect; inactive = no such curve, though single readings can be large or run the other way.
Outcome codes: Yes (active), No (inactive)

{"columns": ["compound", "cat"],
 "data": [
  ["Cc1c2c(=O)n(-c3ccccc3)[nH]c2cc(=O)n1CCN1CCOCC1", "No"],
  ["Cc1ccc2nc3sc(C(=O)NC4CCC(O)CC4)cc3cc2c1 (stereo not given)", "Yes"],
  ["N#Cc1cccc(NC(=O)N2C[C@@H]3C[C@H](C2)c2ccc(-c4ccc(OC(F)(F)F)cc4)c(=O)n2C3)c1", "No"],
  ["Cc1ccc(N[S+](=O)([O-])c2cc3c(cc2Cl)NC(=O)CO3)cc1Br", "Yes"],
  ["OC[C@H]1O[C@@H](OCc2ccccc2)[C@H](O)[C@@H](O)[C@H]1O", "No"]
]}

---

- target.entity: Aldehyde dehydrogenase, mitochondrial (Homo sapiens) (UniProt P05091)
- procedure.details: qHTS for Inhibitors of the Aldehyde Dehydrogenase Family (ALDH2) Primary screen (AID 2061308); also: nearly all actives have a fitted effect of over 55% in size
- condition.details: ALDH2 enzyme inhibition qHTS, 1536-well; series mostly up to 56 µM
Inconclusive results are not listed. Calls of active or inactive are those of the source. Calls follow the shape of the dose curve; as a rule, active = well fitted inhibition curve with a large enough effect; inconclusive = small, poorly fitted or top-dose-only effect; inactive = flat fitted curve, though single readings scatter.
Possible outcomes: active, inactive

{"columns": ["compound", "cat"],
 "data": [
  ["Cc1cc2c(s1)c1cnn(Cc3ccc(C)c(F)c3F)c(=O)c1n2C", "inactive"],
  ["O=S(=O)(Nc1nccs1)c1ccc(NCc2ccc(Cl)cc2O)cc1", "inactive"],
  ["COc1ccc(C2Nc3ccccc3C(=O)N2Cc2cccc(Cl)c2)cc1COc1ccc(NC(C)=O)cc1 (stereo unspecified)", "inactive"],
  ["N#Cc1cc(NC(=O)Nc2nnc(-c3ccncc3)s2)ccc1F", "inactive"],
  ["O=S(=O)(Nc1ccc(-c2ccccc2)cc1)c1ccc(NCc2ccc(Br)cc2O)cc1", "inactive"],
  ["CC(C)c1ccccc1-c1nc(NCc2ccc(-c3cccnc3)cc2)c2cccn2n1", "inactive"],
  ["CC(=O)C1=C(O)C2c3c[nH]c4cccc(c34)CC2C(C)(C)N(C)C1=O (stereo unspecified)", "inactive"],
  ["O=S(=O)(NCCCCCNS(=O)(=O)c1c(F)cccc1F)c1ccc2c(c1)OCCO2", "inactive"],
  ["CCN1CCN(c2cccc(Nc3nn4c(=O)c5ccccc5nc4s3)c2)CC1", "inactive"],
  ["C=Cc1ccc(C(=O)N2CCCC(CCC(=O)N3CCN(c4ccccn4)CC3)C2)cc1 (stereo unspecified)", "inactive"],
  ["Cc1ccccc1C(=O)N1CCc2cc(-c3nc(NC(=O)Cc4ccc5c(c4)OCCO5)sc3C)ccc21", "inactive"],
  ["Cc1ccc(S(=O)(=O)Nc2ccc(C(=O)Nc3ncc(-c4ccccc4)s3)cc2)cc1", "inactive"],
  ["C[C@@H]1O[C@@H](O[C@H]2[C@H](O[C@H]3CC[C@@]4(C)C(CC[C@]5(C)C4C=C[C@]46OC[C@@]7(CCC(C)(C)C[C@H]74)[C@@H](O)C[C@]65C)[C@]3(C)CO)O[C@H](CO)[C@@H](O)[C@@H]2O[C@@H]2O[C@H](CO)[C@@H](O[C@@H]3O[C@@H](C)[C@H](O)[C@@H](O)[C@H]3O)[C@H](O)[C@H]2O)[C@H](O)[C@H](O)[C@H]1O (stereo partly specified)", "inactive"],
  ["O=C1CCCC2=C1C1(CCCC1)N=C(Nc1nc3cc4ccccc4cc3o1)N2", "inactive"],
  ["COc1cccc(NS(=O)(=O)c2ccc(NCc3cccc(OC)c3O)cc2)c1", "inactive"],
  ["Cc1ccc(NS(=O)(=O)c2cccc(Cl)c2)cc1C", "inactive"],
  ["Cc1nnc(-c2cnn(C)c2N)n1CCCc1cccnc1", "inactive"],
  ["Cc1[nH]c2ccccc2c1CCNCc1ccc(/C=C/C(=O)NO)cc1", "inactive"],
  ["Cc1cc(C)nc(NC(=S)N2CCN(c3ccc(NS(C)(=O)=O)nn3)CC2)c1", "inactive"],
  ["Cc1ccc(S(=O)(=O)Nc2cnccc2C(=O)Nc2nc(-c3ccc(F)cc3)cs2)cc1", "inactive"],
  ["O=S1(=O)N=C(Oc2cccc(Br)c2)c2ccccc21", "inactive"],
  ["Cc1cc(C)nc(NC(=S)N2CCN(Cc3c(F)cccc3Cl)CC2)c1", "inactive"],
  ["O=S(=O)(c1ccccc1)N1CCN(c2nc(-c3ccc(Br)cc3)cs2)CC1", "inactive"],
  ["O=C(O)c1ccc(-c2noc(-c3ccccc3F)n2)cc1", "inactive"],
  ["C=C1[C@@H](C)[C@H]2[C@H](Cc3c[nH]c4ccccc34)NC(=O)[C@]23C(=O)/C=C/C(=O)[C@H](O)/C(C)=C\\[C@@H](C)C/C=C/[C@H]3[C@@H]1O", "active"],
  ["COc1ccc(NC(=S)N2CCN(c3cccc(C(F)(F)F)c3)CC2)nc1", "inactive"],
  ["c1nc(NCCc2cnc[nH]2)c2cc(-c3ccc4c(c3)OCO4)ccc2n1", "inactive"],
  ["CN(Cc1ccco1)c1ncnc2ccc(-c3ccccc3Cl)cc12", "inactive"],
  ["Cc1cc2c(s1)c1cnn(Cc3c(F)c(F)cc(F)c3F)c(=O)c1n2C", "inactive"],
  ["CC(O)c1ccc(-c2ccc3ncnc(NCCc4cnc[nH]4)c3c2)o1 (stereo unspecified)", "inactive"],
  ["Cc1ccc(NS(=O)(=O)c2ccc3[nH]c(=O)[nH]c3c2)cc1C", "inactive"],
  ["Cc1ccc2nsnc2c1S(=O)(=O)Nc1cccc2cccnc12", "inactive"],
  ["CSc1cnc(-c2ccccc2C(C)C)nc1NCc1ccc(-c2cccnc2)cc1", "inactive"],
  ["Cc1ccc(OCCn2c(CCNC(=O)Cc3cc(F)ccc3F)nc3ccccc32)cc1", "inactive"],
  ["COC(=O)c1sc2c(c1-c1nc3ccccc3s1)CCNC2", "inactive"],
  ["COc1ccc(NS(=O)(=O)c2ccc(C)cc2)c(C(=O)Nc2nc(-c3ccccc3)cs2)c1", "inactive"],
  ["O=S(=O)(NCC1CCC(NS(=O)(=O)c2c(F)cccc2F)CC1)c1ccc2c(c1)OCCO2 (stereo unspecified)", "inactive"],
  ["Fc1ccc(-c2ccc(Nc3nc(-c4ccncc4)nc4ccccc34)cc2F)cc1", "inactive"],
  ["O=[S+]([O-])(Nc1ccc(C2CCNCC2)cc1)c1ccc(NCc2ccc(Br)cc2O)cc1", "inactive"],
  ["CCC(=O)NC(c1cc(Cl)c2ccccc2c1O)C1CC1 (stereo unspecified)", "inactive"],
  ["O=S(=O)(c1ccc2c(c1)OCCO2)N1CCN(S(=O)(=O)c2cc(F)c(Br)cc2F)CC1", "inactive"]
]}
